- Assay Summary: small-molecule binders of probe aNOTCH3, primary screen, biochemical, small-molecule microarray, 635/667 nm fluorescence (AID 1120);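 note: probe is a biotin-tagged antibody raised against NOTCH3 rather than NOTCH3 protein; score merges spot fluorescence near 667 nm with spot signal to noise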
- Condition Set: higher = more signal
Measure: composite z-score
One number for each entry.

test_smiles=Cc1ccc(S[C@]2(C(=O)NCc3ccccc3)CC(=O)N(Cc3ccccc3)[C@@H]2c2ccc(CO)cc2)cc1 assay_value=-0.25
test_smiles=COCCOC(=O)N1C(=O)[C@@]2(c3cc(C#CCCO)ccc31)[C@H](c1ccccc1OCCO)N1[C@H](c3ccccc3)[C@H](c3ccccc3)OC(=O)[C@H]1[C@@H]2C(=O)N1CCN(c2ncccn2)CC1 assay_value=0.413

Continue with the next compound.
Which composite z-score is reported for this compound? COCCOC(=O)N1C(=O)[C@@]2(c3ccccc31)[C@H](C(=O)NC[C@H](O)c1ccccc1)[C@H]1C(=O)O[C@H](c3ccccc3)[C@H](c3ccccc3)N1[C@@H]2c1ccc(OCCO)cc1 0.267

====

- Assay Summary: RPMI8226 myeloma cell viability, profiling panel, resazurin fluorescence, basal, 24 h, PK04 Diversity Set (AID 1180);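 note: RPMI8826 multiple myeloma cell line at 5000 cells per well; test concentration not given here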
- Condition Set: higher = more signal
Measure: z-score
Give bare numbers.

compound=C[C@]1(C(=O)NCc2ccccc2)c2ccccc2C(=O)N(Cc2ccc(OC(F)(F)F)cc2)[C@H]1c1ccc(CO)cc1 assay_value=1.19
compound="CCOC(=O)C1=CCC(C(C)(C)C)N(S(=O)(=O)c2ccc(C)cc2)C1 (stereo not given)" assay_value=-0.719
compound=CC(C)NC(=O)[C@@]1(Cc2ccccc2I)c2ccccc2C(=O)N(Cc2ccccc2)[C@H]1c1ccc(CO)cc1 assay_value=-0.211
compound=O=C1C[C@@](C(=O)NC2CC2)(c2ccc([N+](=O)[O-])cc2)[C@@H](c2ccc(CO)cc2)N1CC12CC3CC(CC(C3)C1)C2 assay_value=-3.25
compound="CCCCCCCCCCC(O)C1C=CC2C(=O)N(Cc3ccccc3)C(=O)C2N1n1cnnc1 (stereo not given)" assay_value=-1.15
compound=COCCOC(=O)N1C(=O)[C@@]2(c3cc(C#CCNC(N)=O)ccc31)[C@H](c1ccc(OCCO)cc1)N1[C@H](c3ccccc3)[C@H](c3ccccc3)OC(=O)[C@H]1[C@@H]2C(=O)N1CCc2cc(OC)c(OC)cc2C1 assay_value=0.665

Give me z-score for each of these compounds, listed below.
1. CO[C@H]1O[C@H](CO)[C@@H](OC(=O)Nc2ccc3c(c2)OCO3)[C@H](OC(=O)Nc2ccccc2)[C@H]1OC(=O)Nc1ccccc1
2. CC(C)(C)OC(=O)CC[C@@]1(C(=O)O)N=C(c2ccc(OCCCO)cc2)O[C@@H]1c1ccccc1N=[N+]=[N-]
3. CC(C)(C)N1CC=CC23O[C@@H]4C=CCOC(=O)[C@@H]4[C@H]2C(=O)N(CCCCCO)[C@@H]3C1=O (stereo not given in full)

1. -2.41
2. -0.105
3. -0.867

Give me z-score for each of these compounds, listed below.
1. CC=CC(O)C1C=CC2C(=O)N(c3ccccc3)C(=O)C2N1Nc1ccc(C(C)C)cc1 (stereo not given)
2. Cc1ccccc1C(O)C1C=CC2C(=O)N(C)C(=O)C2N1Nc1ccccc1 (stereo not given)
3. C=CC[C@@H](OC(=O)Nc1ccc(OC)cc1)c1ccc(O)c2ccccc12

-0.863
-1.61
-4.48

Give me z-score for each of these compounds, listed below.
1. COc1ccc(C#Cc2ccc3c(c2)[C@]2(C(=O)N3)[C@H](c3ccc(O)cc3)N3[C@H](c4ccccc4)[C@H](c4ccccc4)OC(=O)[C@H]3[C@@H]2C(=O)NC[C@H](O)c2ccccc2)cc1
2. O=C1OCCC=C[C@H]2OC34C=CCN(c5ccc6ccccc6c5)C(=O)[C@H]3N(CCCCCO)C(=O)[C@@H]4C12 (stereo not given in full)
3. [N-]=[N+]=NCc1ccccc1C[C@]1(C(=O)O)N=C(c2ccc(OCCCO)cc2)O[C@H]1c1ccccc1CN=[N+]=[N-]

1. -4.1
2. 1.28
3. -0.0479

====

Record form. Attribute: composite z-score. Fill in for each entry.
- Test system: Noggin (protein binding on small-molecule microarray)
- Assay Summary: Noggin binders on small-molecule microarray, primary screen, biochemical, 635/667 nm fluorescence (AID 1095);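 note: score merges 667 nm feature fluorescence with signal to noise over triplicate slides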
- Condition Set: 635 nm fluorescence, higher = more signal
Give bare numbers.

Give me composite z-score for each of these molecules, listed below.
1. C=CC[C@@H](OC(=O)Nc1ccc(OC)cc1)c1ccc(O)c2ccccc12
2. CC(C)(C)OC(=O)CC[C@@]1(C(=O)O)N=C(c2ccc(OCCCO)cc2)O[C@@H]1c1ccccc1N=[N+]=[N-]
3. CN1C(=O)C2C=CC(C(O)c3ccccn3)N(Nc3ccccc3)C2C1=O (centres undefined)
4. O=c1cccc(C=Cc2ccccc2)o1

1: 1.46; 2: -0.569; 3: 0.021; 4: 0.104

====

- Assay Summary: small-molecule binders of probe aInhba, primary screen, biochemical, small-molecule microarray, 635/667 nm fluorescence (AID 1148);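 note: score merges 667nm spot fluorescence with signal-to-noise for antibody binding to printed compounds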
- Condition Set: higher = more signal
Class boundaries, taken from values of composite z-score, are as follows: low interval: < -0.1; middle interval: ≥ -0.1 and < 0.04; high interval: ≥ 0.04

Take a look at these entries with their results.
compound="CC(C)c1ccc(NN2C(C(O)c3c(F)cccc3Cl)C=CC3C(=O)N(c4ccccc4)C(=O)C32)cc1 (centres undefined)" label_value="high interval"
compound=Cc1ccc(S[C@]2(C(=O)NCc3ccccc3)CC(=O)N(Cc3ccccc3Cl)[C@@H]2c2ccc(CO)cc2I)cc1 label_value="middle interval"
compound="C=CCC(OC(C)=O)[C@@H]1[C@@H](N(Cc2cc3ccccc3o2)C(=O)c2ccc(C)cc2)c2cc(OCCCO)ccc2N1C(=O)c1ccc2ccccc2c1 (some centres undefined)" label_value="middle interval"

Field: class (composite z-score) — entry: COCCOC(=O)N1C(=O)[C@@]2(c3cc(C#CCNC(N)=O)ccc31)[C@H](c1ccccc1OCCO)N1[C@H](c3ccccc3)[C@H](c3ccccc3)OC(=O)[C@H]1[C@@H]2C(N)=O high interval

Field: class (composite z-score) — entry: O=C(CS)NCCCCCCNC(=O)[C@H]1C[C@H]2C(=O)N3CCC[C@H]3C(=O)N2[C@H]1c1cccc(OCCO)c1 middle interval

Field: class (composite z-score) — entry: O=C1C[C@]2(c3ccc([N+](=O)[O-])cc3)C(=O)N(CC(F)(F)F)c3cc(CO)ccc3[C@H]2N1CC12CC3CC(CC(C3)C1)C2 middle interval

Field: class (composite z-score) — entry: CC(C)CNC(=O)[C@@H]1c2ccccc2C(=O)N(Cc2cc(C(F)(F)F)cc(C(F)(F)F)c2)[C@H]1c1ccc(CO)cc1 high interval

Field: class (composite z-score) — entry: Cc1ccc([C@H]2[C@H](C(=O)O)[C@H](Sc3ccccc3)[C@@H](C(C)C)N2S(=O)(=O)c2ccc(C)cc2)cc1 low interval

Field: class (composite z-score) — entry: O=C1O[C@@H](c2ccccc2)[C@@H](c2ccccc2)N2[C@@H](c3ccc(O)cc3)[C@]3(C(=O)Nc4ccc(C#CC5=CCCCC5)cc43)[C@@H](C(=O)O)[C@H]12 high interval

Field: class (composite z-score) — entry: C[C@]1(C(=O)NCc2ccccc2)c2ccccc2C(=O)N(Cc2cc(F)cc(C(F)(F)F)c2)[C@H]1c1ccc(CO)cc1 high interval

Field: class (composite z-score) — entry: [N-]=[N+]=NCc1ccccc1[C@@H]1OC(c2ccc(OCCCO)cc2)=N[C@]1(Cc1ccccc1N=[N+]=[N-])C(=O)NCc1ccccc1 middle interval

Field: class (composite z-score) — entry: O=c1oc(-c2ccccc2)nc2cc(Br)ccc12 low interval

Field: class (composite z-score) — entry: C=CCC(OC(C)=O)[C@@H]1[C@@H](N(Cc2ccc(-c3cccc(C(F)(F)F)c3)o2)C(=O)c2ccc(C)cc2)c2cc(OCCCO)ccc2N1C(=O)c1ccc(-c2ccccc2)cc1 (some centres undefined) middle interval

Field: class (composite z-score) — entry: COC(=O)C[C@H]1O[C@]2(C(=O)N(Cc3ccccc3)c3ccc(NC(C)=O)cc32)[C@@H](C)[C@@H]1[Si](C)(C)c1ccc(OC)cc1 low interval

====

Record form. Attribute: composite z-score. Fill in for each entry.
- Assay Summary: binders of probe aFGF10 on microarray, primary screen, stem cell growth factor project, biochemical, small-molecule microarray, fluorescence 635/667 (AID 1071);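 note: score merges 667 nm spot intensity and signal to noise from triplicate slides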
- Condition Set: higher = more signal
Numbers only.

Example results:
test_smiles=COc1ccc([Si](C)(C)[C@@H]2[C@@H](CC(=O)N(CCO)Cc3ccccc3)O[C@]3(C(=O)N(C)c4ccccc43)[C@H]2C)cc1 measure="composite z-score" assay_value=0.628
test_smiles=CCCCC=C[C@@H](NC(=O)c1ccc(C(=O)OC)cc1)c1ccccc1 measure="composite z-score" assay_value=0.213
test_smiles=COC(=O)C(CC#Cc1ccc2c(c1)[C@]1(C(=O)N2)[C@H](c2ccc(OCCO)cc2)N2[C@H](c3ccccc3)[C@H](c3ccccc3)OC(=O)[C@H]2[C@@H]1C(=O)NC[C@H](O)c1ccccc1)C(=O)OC measure="composite z-score" assay_value=1.12
test_smiles=COC(=O)[C@@]1(Cc2ccccc2)[C@H]2c3cc(C(=O)N4CCCC4)n(C)c3C[C@H]2CN1C(=O)c1ccccc1 measure="composite z-score" assay_value=-0.0646

Continue with the next compound.
Which composite z-score is reported for this compound? [N-]=[N+]=NCc1ccccc1[C@@H]1OC(c2ccc(OCCCO)cc2)=N[C@]1(Cc1ccccc1N=[N+]=[N-])C(=O)NCc1ccccc1 0.272
